- target_desc: Helios (Homo sapiens, UniProt Q96SW2+Q9UKS7)
- Construct: fluorescently labelled antibodies against Helios and Ikaros; endogenous in cells; host or cells: Jurkat cells
- Sequence (Q9UKS7 whole entry): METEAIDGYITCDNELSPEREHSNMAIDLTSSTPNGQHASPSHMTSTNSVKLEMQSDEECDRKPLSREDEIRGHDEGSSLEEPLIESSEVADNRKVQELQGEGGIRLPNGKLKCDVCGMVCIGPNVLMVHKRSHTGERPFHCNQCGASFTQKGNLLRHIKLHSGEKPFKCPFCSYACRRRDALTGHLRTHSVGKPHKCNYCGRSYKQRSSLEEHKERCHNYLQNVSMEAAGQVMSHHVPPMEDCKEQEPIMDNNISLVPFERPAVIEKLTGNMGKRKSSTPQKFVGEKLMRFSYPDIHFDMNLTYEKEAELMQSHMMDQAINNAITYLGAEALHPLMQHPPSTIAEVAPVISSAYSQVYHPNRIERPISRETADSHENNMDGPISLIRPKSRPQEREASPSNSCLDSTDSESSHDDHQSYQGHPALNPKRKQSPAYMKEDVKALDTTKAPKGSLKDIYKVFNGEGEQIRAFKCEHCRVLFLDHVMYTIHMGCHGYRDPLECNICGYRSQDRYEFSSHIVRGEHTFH
- Sequence (Q96SW2 whole entry): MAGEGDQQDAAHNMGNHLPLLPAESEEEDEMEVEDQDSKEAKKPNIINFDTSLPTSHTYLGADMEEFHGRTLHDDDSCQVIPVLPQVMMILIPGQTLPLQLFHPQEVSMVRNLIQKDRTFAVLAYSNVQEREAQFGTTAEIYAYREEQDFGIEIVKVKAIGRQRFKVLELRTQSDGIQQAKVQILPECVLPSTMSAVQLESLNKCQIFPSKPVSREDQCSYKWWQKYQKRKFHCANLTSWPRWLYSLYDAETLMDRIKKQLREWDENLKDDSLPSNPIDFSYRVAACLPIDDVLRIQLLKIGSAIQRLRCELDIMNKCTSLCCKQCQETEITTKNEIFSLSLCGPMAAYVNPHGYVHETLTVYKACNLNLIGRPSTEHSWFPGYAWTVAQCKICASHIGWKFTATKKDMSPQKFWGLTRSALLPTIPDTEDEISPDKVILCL
- Sequence (Q16531 whole entry partner): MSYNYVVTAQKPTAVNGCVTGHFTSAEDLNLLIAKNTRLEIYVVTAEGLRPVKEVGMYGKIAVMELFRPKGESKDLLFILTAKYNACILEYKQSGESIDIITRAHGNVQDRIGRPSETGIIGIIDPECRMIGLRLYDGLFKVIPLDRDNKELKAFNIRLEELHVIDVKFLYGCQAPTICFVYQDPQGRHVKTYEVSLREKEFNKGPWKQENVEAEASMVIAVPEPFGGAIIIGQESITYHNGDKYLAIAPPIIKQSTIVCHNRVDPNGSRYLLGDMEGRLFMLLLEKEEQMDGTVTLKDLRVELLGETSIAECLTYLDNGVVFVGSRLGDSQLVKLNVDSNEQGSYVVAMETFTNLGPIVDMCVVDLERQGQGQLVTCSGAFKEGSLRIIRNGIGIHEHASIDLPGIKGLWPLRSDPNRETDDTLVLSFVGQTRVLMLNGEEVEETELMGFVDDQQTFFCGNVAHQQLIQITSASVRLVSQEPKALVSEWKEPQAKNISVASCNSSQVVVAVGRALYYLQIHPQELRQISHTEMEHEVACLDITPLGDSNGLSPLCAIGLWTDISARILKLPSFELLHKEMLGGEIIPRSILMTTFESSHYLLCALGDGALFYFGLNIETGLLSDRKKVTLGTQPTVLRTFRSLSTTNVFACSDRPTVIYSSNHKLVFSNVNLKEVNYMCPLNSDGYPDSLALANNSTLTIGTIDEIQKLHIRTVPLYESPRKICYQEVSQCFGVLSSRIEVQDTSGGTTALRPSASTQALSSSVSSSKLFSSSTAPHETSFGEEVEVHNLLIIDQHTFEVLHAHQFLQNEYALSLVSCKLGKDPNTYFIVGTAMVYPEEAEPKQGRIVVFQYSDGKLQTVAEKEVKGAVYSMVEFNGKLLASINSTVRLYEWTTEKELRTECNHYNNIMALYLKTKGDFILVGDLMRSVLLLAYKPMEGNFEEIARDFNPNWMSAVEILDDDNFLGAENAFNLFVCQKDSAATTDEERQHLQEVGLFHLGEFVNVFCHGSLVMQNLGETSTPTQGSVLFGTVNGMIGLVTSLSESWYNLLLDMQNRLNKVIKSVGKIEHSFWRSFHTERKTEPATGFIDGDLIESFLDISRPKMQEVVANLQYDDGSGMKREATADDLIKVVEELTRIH
- assay_remarks: Helios Cellular Degradation Assay (flow cytometry, Helios-PE antibody staining, 72 h)
- Assay type: cell-based
- recorded_conditions: Jurkat cells, 72 h incubation, flow cytometry
measured_property: DC50 (nM)
Your answer should be a plain number; it is taken to be in nM.

Input: Give the measured DC50 of O=C1CCC(N2Cc3cc(-c4cc(CNC5CCC(O)CC5)ccn4)ccc3C2=O)C(=O)N1 (stereo not shown) [Example 101] .
Output: 59

Input: Input COc1cccc(CN(C)Cc2ccnc(-c3ccc4c(c3)CN(C3CCC(=O)NC3=O)C4=O)c2)c1 (stereo not shown) [Example 158]
Output: 256

Input: Input CN(Cc1ccnc(-c2ccc3c(c2)CN(C2CCC(=O)NC2=O)C3=O)c1)Cc1cncn1C (stereo not shown) [Example 174]
Output: 5870
